Biological target: T1, human PD-L1-his tag protein (human, UniProt Q9NZQ7 19-238)
T1 construct: also called human PD-L1-His protein; recombinant PD-L1 protein; not shown: his tag
T1 sequence (Q9NZQ7 19-238 limits assumed): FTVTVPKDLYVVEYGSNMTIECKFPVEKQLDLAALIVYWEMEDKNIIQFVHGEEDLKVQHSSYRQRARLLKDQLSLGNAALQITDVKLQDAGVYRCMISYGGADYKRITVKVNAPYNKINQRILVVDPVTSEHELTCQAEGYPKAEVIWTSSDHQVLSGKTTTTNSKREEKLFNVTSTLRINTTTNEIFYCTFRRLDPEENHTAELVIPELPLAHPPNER
Assay: SPR (Biacore T200), mAb captured on Protein A chip, PD-L1-his injected
Quantity name: kon (M⁻¹ s⁻¹)

{"Binder": "Hu89C10H8-4 (antibody, V domains shown, humanized) VH: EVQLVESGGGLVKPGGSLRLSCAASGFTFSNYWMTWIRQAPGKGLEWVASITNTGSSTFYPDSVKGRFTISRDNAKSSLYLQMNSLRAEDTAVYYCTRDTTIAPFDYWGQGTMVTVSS VL: DIQMTQSPSSLSASVGDRVTITCKASQNLNEYLNWYQQKPGKAPKRLIYKTNTLQAGVPSRFSGSGSGTDYTLTISSLQPEDFATYYCSQYNSGNTFGQGTKLEIK", "Units": "M⁻¹ s⁻¹", "Measured result": 562000}
